Target: Tb-labeled inactive PDGFRβ (Homo sapiens (Human))
Sequence (P09619 33-1106): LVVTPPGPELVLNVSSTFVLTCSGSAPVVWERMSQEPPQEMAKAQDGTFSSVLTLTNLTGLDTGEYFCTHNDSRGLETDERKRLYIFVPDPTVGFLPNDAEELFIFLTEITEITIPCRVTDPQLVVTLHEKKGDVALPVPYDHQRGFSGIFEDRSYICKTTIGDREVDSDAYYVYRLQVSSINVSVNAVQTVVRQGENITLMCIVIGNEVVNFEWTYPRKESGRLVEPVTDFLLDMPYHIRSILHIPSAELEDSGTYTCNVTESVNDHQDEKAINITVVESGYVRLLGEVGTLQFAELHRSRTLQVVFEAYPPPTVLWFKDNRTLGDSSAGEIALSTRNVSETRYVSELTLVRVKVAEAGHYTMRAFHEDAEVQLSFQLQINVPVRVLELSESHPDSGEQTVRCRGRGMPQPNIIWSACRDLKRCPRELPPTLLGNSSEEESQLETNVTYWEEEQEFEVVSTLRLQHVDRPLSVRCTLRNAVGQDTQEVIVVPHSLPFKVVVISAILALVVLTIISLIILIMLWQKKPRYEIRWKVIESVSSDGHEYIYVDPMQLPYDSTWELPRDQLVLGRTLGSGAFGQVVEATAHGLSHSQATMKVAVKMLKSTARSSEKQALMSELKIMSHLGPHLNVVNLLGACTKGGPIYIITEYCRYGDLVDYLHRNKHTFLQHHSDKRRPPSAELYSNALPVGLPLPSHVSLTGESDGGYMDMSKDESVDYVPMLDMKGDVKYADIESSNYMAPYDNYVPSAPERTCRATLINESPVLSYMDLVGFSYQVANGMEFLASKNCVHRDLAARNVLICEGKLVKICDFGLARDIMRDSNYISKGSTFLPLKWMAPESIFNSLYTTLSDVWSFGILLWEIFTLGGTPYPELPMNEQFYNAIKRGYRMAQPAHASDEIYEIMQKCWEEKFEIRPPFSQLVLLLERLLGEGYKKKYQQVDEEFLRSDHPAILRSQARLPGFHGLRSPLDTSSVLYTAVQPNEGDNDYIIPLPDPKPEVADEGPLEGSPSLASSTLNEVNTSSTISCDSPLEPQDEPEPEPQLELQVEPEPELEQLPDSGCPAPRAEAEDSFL
Test: PDGFRβ LanthaScreen Assay
Details: read-out: PDGFR Lantha IC50
Here the recorded IC50 is given for each entry.
Give your result in nM as a bare value.

Ask: # lookup: IC50 of COCCN(CCNC(=O)c1cnc(C)c(NC(=O)c2cnn3cc(-c4cnn(C)c4)sc23)c1)C(C)C
Reply: 6

Ask: Consider the compound Cc1ncc(NC(=O)CN2CCC[C@@H]2C)cc1NC(=O)c1cnn2cc(-c3cnn4c3COCC4)sc12 and give its measured IC50.
Reply: 4.8

Ask: For the compound Cc1ncc(C(=O)NCCN2CCC(F)(F)CC2)cc1NC(=O)c1cnn2cc(-c3cnn(C)c3)sc12 , what IC50 is on record?
Reply: 2

Ask: Value lookup for IC50; key = Cc1ncc(NC(=O)CN2CCCC23CC3)cc1NC(=O)c1cnn2cc(-c3cnn(CCO)c3)sc12
Reply: 3.2

Ask: Quick one: IC50 for Cc1ncc(NC(=O)CN2CC(C)(C)C2)cc1NC(=O)c1cnn2cc(-c3ccsc3)sc12 ?
Reply: 1.2

Ask: Name the recorded IC50 for Cc1ncc(C(=O)NCCN2CCCC2(C)C)cc1NC(=O)c1cnn2cc(-c3cccnc3)sc12 .
Reply: 10.6

Ask: Need IC50 of Cc1ncc(NC(=O)CN2C[C@H](C)O[C@@H](C)C2)cc1NC(=O)c1cnn2cc(-c3cc[nH]c3)sc12 , thanks.
Reply: 2.4

Ask: What value of IC50 has been reported for the following compound? Cc1ncc(C(=O)NCCN2CCC3(CCOC3)C2)cc1NC(=O)c1cnn2cc(-c3cnn(C)c3)sc12 (stereo not drawn)
Reply: 12.7

Others:
Ask: Entry COc1cnccc1-c1cn2ncc(C(=O)Nc3cc(NC(=O)CN4CC(C)(C)C4)cnc3C)c2s1 has what IC50?
Reply: 1.1

Ask: Item COCCn1cc(-c2cn3ncc(C(=O)Nc4cc(NC(=O)CCN5CC6CCC5CC6)cnc4C)c3s2)cn1 has what recorded IC50?
Reply: 7.5

Ask: Please look up its IC50: COc1ncccc1-c1cn2ncc(C(=O)Nc3cc(C(=O)NCCN4CCCC4C)cnc3C)c2s1 (stereo not drawn)
Reply: 1.5

Ask: Look up IC50 for this compound: Cc1ncc(NC(=O)CCN2CCCC2(C)C)cc1NC(=O)c1cnn2cc(-c3cnn(C)c3)sc12 [Example 42]
Reply: 3.8

Ask: Entry Cc1ncc(C(=O)NCCN2CC3CCC2CC3)cc1NC(=O)c1cnn2cc(-c3cnn(C(F)F)c3)sc12 has what IC50?
Reply: 6.1

Ask: If you can, please state the reported IC50 value of COc1ncccc1-c1cn2ncc(C(=O)Nc3cc(NC(=O)CN4CC(C)(OC)C4)cnc3C)c2s1 .
Reply: 1.8

Ask: Which IC50 is listed for Cc1ncc(C(=O)NCCN2CCCC2(C)C)cc1NC(=O)c1cnn2cc(-n3ncc4cccnc43)sc12 ?
Reply: 2.5

Ask: Item Cc1ncc(NS(=O)(=O)CCN2CC3CCC2CC3)cc1NC(=O)c1cnn2cc(-c3cnn(C)c3)sc12 has what recorded IC50?
Reply: 1840

Ask: So what does the record say about IC50 for COc1ncccc1-c1cn2ncc(C(=O)Nc3cc(NC(=O)CN4CCC5(CC5)C4)cnc3C)c2s1 ?
Reply: 0.7

Ask: # get_value(readout='IC50', item= Cc1ncc(NC(=O)CN2CC(C)(C)C2)cc1NC(=O)c1cnn2cc(-c3cnn(CCS(C)(=O)=O)c3)sc12 )
Reply: 6.8

Ask: Item COCCn1nc(C)c(-c2cn3ncc(C(=O)Nc4cc(NC(=O)CCN5CC6CCC(C5)O6)cnc4C)c3s2)c1C has what recorded IC50?
Reply: 1

Ask: # lookup: IC50 of Cc1ncc(NC(=O)NCC2CCN(C)CC2)cc1NC(=O)c1cnn2cc(-c3cnn(C)c3)sc12
Reply: 582

Ask: Could you share which IC50 value was measured for Cc1ncc(NC(=O)CN2CCC2)cc1NC(=O)c1cnn2cc(-c3cnn4c3OCCC4)sc12 ?
Reply: 34.6

Ask: Quick one: IC50 for Cc1ncc(C(=O)NCCN2CCC3(CC3)C2)cc1NC(=O)c1cnn2cc(-c3cccnc3)sc12 ?
Reply: 21.6

Ask: Fill in the blank: the reported IC50 of Cc1ncc(C(=O)NCCN2CCCC(F)(F)C2)cc1NC(=O)c1cnn2cc(-c3cnn(C)c3)sc12 is ____.
Reply: 2.7

Ask: So what's the measured IC50 for this one? Cc1ncc(NC(=O)CN2CCC[C@@H]2C)cc1NC(=O)c1cnn2cc(-c3cnn(C)c3)sc12
Reply: 16.2

Ask: Given COc1ncccc1-c1cn2ncc(C(=O)Nc3cc(NC(=O)C[C@@H]4CCCN4C(C)C)cnc3C)c2s1 , state its recorded IC50.
Reply: 1.7

Ask: Request the reported IC50 associated with Cc1ncc(NC(=O)CN2C[C@@H](C)O[C@H](C)C2)cc1NC(=O)c1cnn2cc(-c3cn(C)nc3C)sc12
Reply: 3.5

Ask: Find the recorded IC50 belonging to COc1ncccc1-c1cn2ncc(C(=O)Nc3cc(C(=O)NCCN4CCC[C@H]4C)cnc3C)c2s1 and report it.
Reply: 1.7

Ask: If you can, please state the reported IC50 value of Cc1ncc(NC(=O)CN2CCCC3(COC3)C2)cc1NC(=O)c1cnn2cc(-c3cnn(C)c3)sc12 .
Reply: 4.5

Ask: Need IC50 of Cc1ncc(NC(=O)CC(C)N2CCCCC2)cc1NC(=O)c1cnn2cc(-c3cnn(C)c3)sc12 (stereo not drawn) , thanks.
Reply: 210

Ask: Look up IC50 for this compound: Cc1ncc(C(=O)NCCN2CCCOCC2)cc1NC(=O)c1cnn2cc(-c3cnn(C)c3)sc12
Reply: 13.1
